Cited source: patent US20230233569A1

- TEST TARGET: KRAS G13C (Homo sapiens, UniProt P01116+P62937, G13C)
- Sequence (P01116 1-169 isoform P01116-2 G13C): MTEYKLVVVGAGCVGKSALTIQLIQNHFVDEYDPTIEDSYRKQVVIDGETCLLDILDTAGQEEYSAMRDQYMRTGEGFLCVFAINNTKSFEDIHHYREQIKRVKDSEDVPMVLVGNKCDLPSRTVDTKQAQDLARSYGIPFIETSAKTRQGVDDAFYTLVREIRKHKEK
- Sequence (P62937 whole entry): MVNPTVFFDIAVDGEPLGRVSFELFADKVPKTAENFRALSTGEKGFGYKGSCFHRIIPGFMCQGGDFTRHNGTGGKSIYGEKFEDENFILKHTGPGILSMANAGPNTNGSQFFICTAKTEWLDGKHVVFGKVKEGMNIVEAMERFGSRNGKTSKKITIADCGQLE
- METHOD DESCRIPTION: Disruption of BRAF RBD interaction with Ras (FRET / MOA assay, with Cyclophilin A)
- Type: biochemical
- DETAILS: read-out: KRAS G13C FRET data, IC50
pIC50: −log10 of the molar value.
RESULT TYPE: pIC50

Examples from the recorded data:
* CCn1c(-c2cccnc2[C@H](C)OC)c2c3cc(ccc31)-c1csc(n1)C[C@H](NC(=O)[C@H](C(C)C)N(C)C(=O)N1CC[C@@H]1C(=O)NC)C(=O)N1CCC[C@H](N1)C(=O)OCC(C)(C)C2 | 5.00 to 6.00
* CCn1c(-c2cccnc2[C@H](C)OC)c2c3cc(ccc31)-c1csc(n1)C[C@H](NC(=O)[C@H](C(C)C)N(C)C(=O)N1CC[C@]3(CCN(C)C3=O)C1)C(=O)N1CCC[C@H](N1)C(=O)OCC(C)(C)C2 (single isomer, unassigned) | 5.00 to 6.00
* CCn1c(-c2cccnc2COC)c2c3cc(ccc31)-c1cc(O)cc(c1)C[C@H](NC(=O)[C@H](C(C)C)N(C)C(=O)[C@H]1CCN(C(C)=O)C1)C(=O)N1CCC[C@H](N1)C(=O)OCC(C)(C)C2 | 6.00 to 7.00
* CCn1c(-c2cc(N3CCN(C)CC3)cnc2[C@H](C)OC)c2c3cc(ccc31)-c1cc(O)cc(c1)C[C@H](NC(=O)[C@H](C1CCCC1)N(C)C(=O)[C@H]1OCC[C@H]1c1ccccc1)C(=O)N1CCC[C@H](N1)C(=O)OCC(C)(C)C2 | 6.00 to 7.00
* CCn1c(-c2cccnc2[C@H](C)OC)c2c3cc(ccc31)-c1csc(n1)C[C@H](NC(=O)[C@@H](OC(=O)N1CC(OC)C1)C(C)C)C(=O)N1CCC[C@H](N1)C(=O)OCC(C)(C)C2 | 6.00 to 7.00
* CCn1c(-c2cccnc2[C@H](C)OC)c2c3cc(ccc31)-c1cc(O)cc(c1)C[C@H](NC(=O)[C@H](C(C)C)N(C)C(=O)C1(N)CC1)C(=O)N1CCC[C@H](N1)C(=O)OCC(C)(C)C2 | 7.00 to 8.00

q: Fill in: pIC50 of CCn1c(-c2cccnc2[C@H](C)OC)c2c3cc(ccc31)-c1csc(n1)C[C@H](NC(=O)[C@H](C(C)C)N(C)C(=O)N1CCC3(CN(C)C3)C1)C(=O)N1CCC[C@H](N1)C(=O)OCC(C)(C)C2 (atropisomer, axis not shown) is ___
a: 6.00 to 7.00

q: # iterate: `CCn1c(-c2cccnc2[C@H](C)OC)c2c3cc(ccc31)-c1cc(O)cc(c1)C[C@H](NC(=O)[C@H](C(C)C)N(C)C(=O)[C@H]1CCN(C(=O)CN)C1)C(=O)N1CCC[C@H](N1)C(=O)OCC(C)(C)C2`
a: 7.00 to 8.00

q: # iterate: `CCn1c(-c2cccnc2[C@H](C)OC)c2c3cc(ccc31)-c1cccc(c1)C[C@H](NC(=O)[C@H](C(C)C)N(C)C(=O)[C@H]1CCN(C(=O)CN)C1)C(=O)N1CCC[C@H](N1)C(=O)OCC(C)(C)C2`
a: 6.00 to 7.00
